A short record of Ki observed with 5-HT2C (Homo sapiens) follows.
Sequence (P28335 33-458): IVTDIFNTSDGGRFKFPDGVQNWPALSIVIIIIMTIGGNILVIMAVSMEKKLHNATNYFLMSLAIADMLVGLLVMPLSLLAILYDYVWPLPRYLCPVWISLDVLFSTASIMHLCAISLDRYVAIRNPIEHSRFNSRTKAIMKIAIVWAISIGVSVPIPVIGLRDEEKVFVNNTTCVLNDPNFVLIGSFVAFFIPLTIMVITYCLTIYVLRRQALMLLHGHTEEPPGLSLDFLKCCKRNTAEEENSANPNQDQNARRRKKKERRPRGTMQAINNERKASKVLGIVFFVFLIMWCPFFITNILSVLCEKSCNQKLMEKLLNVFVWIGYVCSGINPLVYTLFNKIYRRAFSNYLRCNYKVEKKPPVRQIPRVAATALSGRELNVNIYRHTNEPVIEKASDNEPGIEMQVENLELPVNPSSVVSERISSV

mol	assayTarget	Ki / nM
CCCCCCOc1nsnc1C1=CCCN(C)C1	5-HT2C (Homo sapiens)	204
CCCCCCOc1nsnc1C1=CCCNC1	5-HT2C (Homo sapiens)	324

====

Molecular target: HRH4 (Homo sapiens, UniProt Q9H3N8)
Sequence (Q9H3N8 whole entry): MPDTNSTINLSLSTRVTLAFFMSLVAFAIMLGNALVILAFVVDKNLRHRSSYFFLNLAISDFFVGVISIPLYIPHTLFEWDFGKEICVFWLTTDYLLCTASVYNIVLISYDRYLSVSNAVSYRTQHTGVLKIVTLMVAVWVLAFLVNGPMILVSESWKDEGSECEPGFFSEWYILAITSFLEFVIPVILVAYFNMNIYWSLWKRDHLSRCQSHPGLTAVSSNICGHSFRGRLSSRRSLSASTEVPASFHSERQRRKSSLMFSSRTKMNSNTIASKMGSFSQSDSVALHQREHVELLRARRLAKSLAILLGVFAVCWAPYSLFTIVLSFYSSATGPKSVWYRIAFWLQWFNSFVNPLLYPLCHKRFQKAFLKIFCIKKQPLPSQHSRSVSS
Experiment: cell-based
Set-up: species or system HEK293; TRUPATH BRET2 G-protein dissociation; antagonist mode against agonist EC80
Settings: N-Desmethyl Xanomeline, Assay=GoA; agonist mode
pEC50: −log10 of the molar value.

mol	pEC50
CCCCCCOc1nsnc1C1=CCCNC1	5.20

====

Here the recorded Ki is given for each entry.
Target: α2A (Homo sapiens)
Sequence (P08913 1-465): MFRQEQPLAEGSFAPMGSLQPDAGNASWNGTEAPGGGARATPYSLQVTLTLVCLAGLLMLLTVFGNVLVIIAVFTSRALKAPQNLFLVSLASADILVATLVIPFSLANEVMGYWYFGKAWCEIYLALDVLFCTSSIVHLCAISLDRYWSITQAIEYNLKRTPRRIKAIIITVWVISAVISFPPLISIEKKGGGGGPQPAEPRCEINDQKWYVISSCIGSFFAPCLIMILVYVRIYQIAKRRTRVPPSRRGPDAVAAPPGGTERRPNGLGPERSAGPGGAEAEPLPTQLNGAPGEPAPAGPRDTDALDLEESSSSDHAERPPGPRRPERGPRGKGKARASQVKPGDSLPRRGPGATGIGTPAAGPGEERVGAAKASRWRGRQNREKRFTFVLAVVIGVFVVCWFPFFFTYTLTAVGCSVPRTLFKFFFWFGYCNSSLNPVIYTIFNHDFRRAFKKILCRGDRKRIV

mol	Ki
CCCCCCOc1nsnc1C1=CCCN(C)C1	0.955 µM
CCCCCCOc1nsnc1C1=CCCNC1	0.437 µM
